EC50 listing for selected sequences.
test system: MC3T3-E1 cells; test: cAMP in MC3T3-E1 cells, dose-response; type: cell-based; conditions: Table 3; read-out: dose-response cAMP in MC3T3-E1 (EC50)
Reply numerically in pM, unit not repeated.

The cases that follow already have their EC50 on record.
{"columns": ["input-sequence", "reported-property", "unit-descriptor", "quantitative-readout"],
 "data": [
  ["AVSEHQLLHDKGKSIQDERRRAFLLKLIAEI [E18, A22, L25, K26-PTHrP(1-31)NH, E18,A22,L25,K26-PTHrP(1-31)]", "EC50", "pM", 112],
  ["AVSEHQLLHDKGKSIQDERRRAFLLKLIAEIHTA [E18, A22, L25, K26-PTHrP(1-34)OH, E18,A22,L25,K26-PTHrP(1-34)]", "EC50", "pM", 450],
  ["AVSEHQLLHDKGKSIQDERRRAFLLKLIAEAHTA [E18, A22, L25, K26, A31-PTHrP(1-34)OH, E18,A22,L25,K26,A31-PTHrP(1-34)]", "EC50", "pM", 150]
]}

So what's the measured EC50 for this one? AVSEHQLLHDKGKSIQDERRRAFLLKLIQEI [E18, A22, L25, K26, Q29-PTHrP(1-31)OH, E18,A22,L25,K26,Q29-PTHrP(1-31)]
590
